- Tested on: NCI/ADR-RES ovarian
- protocol-summary: NCI tumour cell line growth inhibition, 48 h
endpoint-label: TGI

Use the examples below as a reference point.
| given-smiles | test-system | experimental-result |
| --- | --- | --- |
| CCS(=O)(=O)c1ccc(OC)c(Nc2nccc(N(C)c3ccc4c(C)[nH]nc4c3)n2)c1 | NCI/ADR-RES ovarian | > 19.4 µM |
| COc1cc(-c2cn(-c3ccc(Cl)cc3)c(=O)[nH]2)cc(OC)c1OC | NCI/ADR-RES ovarian | > 100 µM |

Record lookup: for NCI/ADR-RES ovarian, what TGI belongs to Nc1ncc(-c2ccc(C(F)(F)F)cc2)c(NC2CCCCCC2)n1 ?
> 100 µM

Record lookup: for NCI/ADR-RES ovarian, what TGI belongs to O=S(=O)(O)c1ccc(N=Nc2ccc(N=Nc3ccc(/C=C/c4ccc(N=[N+]([O-])c5ccc(/C=C/c6ccc(N=Nc7ccc(N=Nc8ccc(S(=O)(=O)O)cc8)c8ccccc78)cc6S(=O)(=O)O)c(S(=O)(=O)O)c5)cc4S(=O)(=O)O)c(S(=O)(=O)O)c3)c3ccccc23)cc1 ?
> 100 µM

====

- Test system: OVCAR-8 ovarian
- protocol-summary: NCI tumour cell line growth inhibition, 48 h
Reported TGI values for the following compounds.

| compound | TGI |
| --- | --- |
| CC(=O)Oc1cccc2c1C(=O)C(Br)(Br)CCC2 | 13 µM |
| C=CCN=C1N=C(CC(=O)OCC)CS1 | > 100 µM |
| CCc1ccc(CCC(=O)Nc2ncc(Cc3ccccc3)s2)o1 | > 100 µM |

Need TGI, item CC(=O)O[C@@H]1CC(C)C2CC2C2=C(C(O)OC2O)[C@@H]1C(C)CCC=C(C)C (stereo partly specified)
73 µM

Need TGI, item O=C1NC(N/N=C/C(O)C(O)C(O)C(O)CO)=N/C1=C\c1cccs1 (stereo unspecified)
> 100 µM

Need TGI, item C/C(=C1/N=C(c2cc([N+](=O)[O-])ccc2Cl)N(C2=CC=C(Cl)CC2)C1=O)c1cc2ccccc2oc1=O
> 100 µM

Need TGI, item Cc1ccc(C2=Nc3ccccc3NC(=O)C2)cc1
> 100 µM

Need TGI, item CSc1nc(-c2cc3c(c(SC)n2)CCC3)cc2c1CCC2
> 100 µM

Need TGI, item Cc1c(C(=O)CC(=O)C(=O)Nc2cccc(C(F)(F)F)c2)[n+](=O)c2ccccc2n1[O-]
6.34 µM

Need TGI, item CCc1oc2ccccc2c1C(=O)c1cc(Br)c(O)c(Br)c1
> 100 µM

Need TGI, item CCOC(=O)c1cc2cc(CSc3ccccc3)ccc2oc1=O
> 100 µM

====

- System: CAKI-1 renal
- protocol-summary: NCI tumour cell line growth inhibition, 48 h
*1 amine or outer side, *2 acyl side, *3 side chain or, on linkers, in order; H or OH if unused. Where a SMILES comes first, the peptide text is derived from it. Bridges are numbered along the chain shown (N, C = ends). [ ]: non-standard residue; d: D form. The star is where a group is joined. Phe(3-Me) = Cc1cccc(C[C@H](N)C(=O)O)c1; NH(4-Cl-2-F-phenyl) = Fc1cc(Cl)ccc1N*; Pro(4R-Me) = C[C@H]1CN[C@H](C(=O)O)C1; Hyp = O=C(O)[C@@H]1C[C@@H](O)CN1; aThr = C[C@H](O)[C@H](N)C(=O)O; Pip = O=C(O)[C@@H]1CCCCN1; CO = O=C([*:1])[*:2]
endpoint-label: TGI

Use the examples below as a reference point.
| compound | endpoint-label | experimental-result |
| --- | --- | --- |
| Cc1cccc(C[C@H](NC(=O)Nc2ccc(Cl)cc2F)C(=O)N[C@@H]2C(=O)N3C[C@H](O)C[C@H]3C(=O)N3CCCC[C@H]3C(=O)N[C@@H](C)C(=O)N3C[C@H](C)C[C@H]3C(=O)O[C@H]2C)c1 ({NH(4-Cl-2-F-phenyl)-CO}-[Phe(3-Me)][aThr][Hyp][Pip]A[Pro(4R-Me)]; ester 2-C) | TGI | 5.58 µM |
| C=C(Br)C(Cl)(CBr)CCC(Br)C(C)(C)Cl (stereo not given) | TGI | > 10 µM |
| Nc1ncc(-c2ccc(C(F)(F)F)cc2)c(NC2CCCCCC2)n1 | TGI | > 100 µM |
| Cc1cc(N/N=C/c2nc(-c3ccccc3)oc2C)c2cc(Cl)ccc2n1 | TGI | 3.1 µM |
| O=C(NCCCCNCCCNC(=O)C(F)(F)F)C(F)(F)F | TGI | > 100 µM |
| O=C1CNc2cc(N3CCN(c4cccc(C(F)(F)F)c4)CC3)ccc2N1 | TGI | > 100 µM |
| O=[N+]([O-])C(=C/C1CCCCC1)/C(=C\C1CCCCC1)[N+](=O)[O-] | TGI | 11.1 µM |
| COc1ccc(S(=O)Cc2cc(OC)ccc2OC)cc1 (stereo not given) | TGI | > 100 µM |
| CNC=O | TGI | > 10000 µM |

Consider now this further compound.
Record lookup: for CAKI-1 renal, what TGI belongs to COc1cc(/C=C/C(=O)O)ccc1O ?
> 100 µM

====

- Tested on: HT29 colon
- protocol-summary: NCI tumour cell line growth inhibition, 48 h
Reported TGI values for the following compounds.

Need TGI, item CNC1NC(=O)c2ccccc2N1Cc1ccc(F)cc1 (stereo unspecified)
> 100 µM

Need TGI, item COC(=O)c1ccc(NCC2=CC(=O)c3ccccc3C2=O)cc1
> 76.4 µM

Need TGI, item COc1ccc(NC(C)=O)c(C(=O)CCNC(C)=O)c1
> 100 µM

Need TGI, item CCN(CC)C(=S)N/N=C(\C)c1ccccc1O
48 µM

Need TGI, item O=C1C(Cl)=C(N2CCOCC2)C(=O)c2ccccc21
21.8 µM

Need TGI, item Fc1ccc(-c2nnc3sc(-c4cccc(Cl)c4)nn23)cc1Cl
> 100 µM

Need TGI, item CC1OC(OC2C(Oc3cc(O)c4c(=O)cc(-c5ccc(O)cc5)oc4c3)OC(CO)C(O)C2O)C(O)C(O)C1O (stereo unspecified)
> 100 µM

====

- Test system: IGROV1 ovarian
- protocol-summary: NCI tumour cell line growth inhibition, 48 h
endpoint-label: GI50

Use the examples below as a reference point.
| given-smiles | endpoint-label | experimental-result |
| --- | --- | --- |
| O=C(Nc1ccncc1)C(=O)c1cn(S(=O)(=O)c2ccccc2F)c2ccccc12 | GI50 | 3.83 µM |
| O=C(N/N=C/c1ccc(O)cc1O)c1ccc(Nc2ccnc(C(F)(F)F)c2)cc1 | GI50 | 21.6 µM |
| Cc1ccc(NC2=C(Sc3ccc(Cl)cc3)C(=O)N(Cc3ccccc3)C2=O)cc1Cl | GI50 | 3.98 µM |
| O=C(c1cc(-c2cc3c(cc2C(=O)N2Cc4ccccc4C[C@H]2CN2CCOCC2)OCO3)n2c1CCCC2)N(c1ccccc1)c1ccc(O)cc1 | GI50 | 5.97 µM |
| CCCCC(=O)[O-].N.N.N.N.N.[Co+3].[O-][Cl+3]([O-])([O-])[O-] | GI50 | > 100 µM |

Consider now this further compound.
Need GI50, item CO/N=C1/NC(=O)/C(=C/c2ccc3ncccc3c2)S1
4.78 µM

====

- Tested on: A498 renal
- protocol-summary: NCI tumour cell line growth inhibition, 48 h
Kindly return T if reported TGI is no lower than 20 µM; return F if it is lower.

Examples with answers:
| compound | test-system | group |
| --- | --- | --- |
| O=C(NCCCCNCCCNC(=O)C(F)(F)F)C(F)(F)F | A498 renal | T |
| C/C(=N/NC(=S)N(Cc1ccccn1)Cc1ccccn1)c1cnccn1 | A498 renal | T |
| COC[C@H]1OC(=O)c2coc3c2[C@@]1(C)C1=C(C3=O)[C@@H]2CCC(=O)[C@@]2(C)C[C@H]1OC(C)=O | A498 renal | F |

// inclusive: TGI at least 20 µM? input: Cc1cc2nc3c(C(O)CO)nn(-c4ccccc4)c3nc2cc1C (centres undefined)
T

// inclusive: TGI at least 20 µM? input: CCOC(=O)C1(Cc2ccccc2)CCN(C(=O)c2ccccc2)C2C1C2(Cl)Cl (centres undefined)
T

// inclusive: TGI at least 20 µM? input: COc1cccc2c1C(=O)c1ccc3cc(CO)cc(O)c3c1C2=O
F

// inclusive: TGI at least 20 µM? input: COc1ccc(CN=C2Nc3ccncc3S(=O)(=O)N2c2ccccc2)cc1
T

====

Reported GI50 values for the following compounds.
- Test system: K-562 leukemia
- protocol-summary: NCI tumour cell line growth inhibition, 48 h

| given-smiles | GI50 |
| --- | --- |
| O=C(Nc1ccc(Nc2ccncc2)cc1)c1ccc(Nc2ccnc3ccc([N+](=O)[O-])cc23)cc1 | > 100000 nM |

Record lookup: for K-562 leukemia, what GI50 belongs to C=C(CN1CCN(c2ccccc2F)CC1)c1ccc(C(=O)Nc2ccccc2N)cc1 ?
986 nM

Record lookup: for K-562 leukemia, what GI50 belongs to c1cncc(CNc2ccccc2-c2nnc(Nc3ccc4c(c3)OCCO4)o2)c1 ?
43.2 nM

Record lookup: for K-562 leukemia, what GI50 belongs to Cc1c(Cl)cccc1NC(=O)c1sc2nc3c(cc2c1N)CCCCCC3 ?
113 nM
